Origin of measurements: PubChem BioAssay AID463173

System: DeltatarO mutant
Assay: S. aureus survival, RN4220 and DeltatarO strains – OD600, teichoic acid synthesis inhibitors, primary screen (AID 463173)
Details: S. aureus RN4220 wild type/DeltatarO growth, OD600, 18 h, hits give low values, screened at 18.75 µg/mL (by protocol)
Out of some 52,000 compounds screened, about 4,300 (8.3%) were called active. This excerpt belongs to a sample that is enriched for actives.
Measured survival of individual entries

{"compound": "Cc1cccc(N2CCN(C(=O)CN3C(=O)COc4ccc(S(=O)(=O)N5CCC(C)CC5)cc43)CC2C)c1 (stereo not given)", "assay target": "DeltatarO mutant", "survival (%)": 67}
{"compound": "Cc1ccc(-c2ccc(=O)n(CC(=O)Nc3ccc(F)c(Cl)c3)n2)cc1C", "assay target": "DeltatarO mutant", "survival (%)": 82}
{"compound": "Cn1c(C(=O)NCc2ccc(F)cc2)cc2cc(S(=O)(=O)N3CCCCC3)ccc21", "assay target": "DeltatarO mutant", "survival (%)": 126}
{"compound": "O=C(CN1C(=O)CCSc2ccccc21)Nc1ccc(C(F)(F)F)cc1", "assay target": "DeltatarO mutant", "survival (%)": 111}
{"compound": "Cc1ccccc1CNC(=O)c1cc2cc(S(=O)(=O)N3CCCCC3)ccc2n1C", "assay target": "DeltatarO mutant", "survival (%)": 102}
{"compound": "Cc1cccc(-n2cc(-c3ccccc3)c3c(NC(C)C)ncnc32)c1", "assay target": "DeltatarO mutant", "survival (%)": 107}
{"compound": "Cc1ccc2c(c1)sc1nc(=O)n(-c3cccc(Cl)c3)c(=O)n12", "assay target": "DeltatarO mutant", "survival (%)": 85}
{"compound": "CCC(=O)N1c2ccccc2CC1C(=O)NCCc1ccccc1C (stereo not given)", "assay target": "DeltatarO mutant", "survival (%)": 71}
{"compound": "Cn1c(C(=O)NCCc2ccccc2)cc2cc(S(=O)(=O)N3CCCCC3)ccc21", "assay target": "DeltatarO mutant", "survival (%)": 94}
{"compound": "Cc1ccc(Nc2c(-c3ccc(N4CCOCC4)cc3)nc3ncccn23)c(C)c1", "assay target": "DeltatarO mutant", "survival (%)": 80}

----------
Measured survival of individual entries
Test system: DeltatarO mutant
Experiment: S. aureus survival, RN4220 and DeltatarO strains – OD600, teichoic acid synthesis inhibitors, primary screen (AID 463173)
Settings: S. aureus RN4220 wild type/DeltatarO growth, OD600, 18 h, hits give low values, screened at 18.75 µg/mL (by protocol)
About 4,300 (8.3%) of roughly 52,000 compounds were called active. Shown is part of a subset that was picked to be rich in actives.

{"smiles string": "COc1ccccc1N1CCN(c2ncnc3c2cnn3-c2cc(Cl)ccc2C)CC1", "survival": "124% (inactive)"}
{"smiles string": "Cc1cccc(-n2ncc3c(N4CCCCCC4)ncnc32)c1", "survival": "92% (inactive)"}
{"smiles string": "Cc1ccc(-n2ncc3c(N4CCN(Cc5ccccc5)CC4)ncnc32)cc1Cl", "survival": "87% (inactive)"}
{"smiles string": "CN1C(=O)Cc2cc(S(=O)(=O)CCC(=O)N3CCN(c4ccc(Cl)cc4)CC3)ccc21", "survival": "86% (inactive)"}
{"smiles string": "Cc1ccc(C)c(N2CCN(C(=O)CCS(=O)(=O)c3ccc4c(c3)CC(=O)N4C)CC2)c1", "survival": "89% (inactive)"}
{"smiles string": "Cc1ccc(C)c(Cn2c(-c3cccs3)nc3ccccc32)c1", "survival": "-3% (active)"}
{"smiles string": "COc1ccccc1N1CCN(c2ncnc3c2cnn3-c2ccc(C)cc2)CC1", "survival": "91% (inactive)"}
{"smiles string": "c1ccc(CN2CCN(c3ncnc4c3cnn4-c3ccccc3)CC2)cc1", "survival": "69% (inactive)"}
{"smiles string": "O=c1oc2ccc3ccccc3c2cc1-c1nnc(Nc2cccc(C(F)(F)F)c2)s1", "survival": "81% (inactive)"}
{"smiles string": "Cc1ccccc1-c1nc(CS(=O)(=O)CC(=O)Nc2c(C)cccc2C)c(C)o1", "survival": "92% (inactive)"}
